# System: phenylquinone writhing in mice
# TEST SUMMARY: Phenylquinone Writhing Assay (analgesia)
# Format: in vivo, mouse (Carworth CF1 male mice)
# CONDITIONS: Mus musculus, po, 1 h, 100 mg/kg oral, 60 Min; read-out: Phenylquinone Writhing Assay (% Control), percent analgesia
Counter-ions that a name gives are not always drawn.

{"columns": ["MOLECULE", "SYSTEM UNDER TEST", "responders at 100 mg/kg / %"],
 "data": [
  ["COc1nncc(-c2ccc3ccccc3c2)n1", "phenylquinone writhing in mice", 10],
  ["COc1nncc(-c2c(C)cc(C)cc2C)n1", "phenylquinone writhing in mice", 10],
  ["COc1cccc(-c2cnnc(OC)n2)c1", "phenylquinone writhing in mice", 10],
  ["COc1ccc(-c2nnc(N(C)CCO)nc2-c2ccc(OC)cc2)cc1", "phenylquinone writhing in mice", 80],
  ["CSc1nncc(-c2ccc(Br)cc2)n1", "phenylquinone writhing in mice", 10],
  ["Cc1ccc(-c2nnc(C)nc2-c2ccc(C)cc2)cc1", "phenylquinone writhing in mice", 50],
  ["CC(C)Oc1nnc(-c2ccccc2)c(-c2ccccc2)n1", "phenylquinone writhing in mice", 20],
  ["NC(Cc1ccccc1)C(=O)NNc1nncc(-c2ccccc2)n1 (stereo not drawn) [Example 116, (dihydrobromide hydrate)]", "phenylquinone writhing in mice", 60],
  ["c1ccc(Oc2nnc(-c3ccccc3)c(-c3ccccc3)n2)cc1", "phenylquinone writhing in mice", 10],
  ["COc1nncc(-c2ccc(OC)c(OC)c2)n1", "phenylquinone writhing in mice", 10],
  ["CSc1nnc(-c2ccccn2)c(-c2ccccn2)n1", "phenylquinone writhing in mice", 20],
  ["CSc1nncc(-c2cc3ccccc3o2)n1", "phenylquinone writhing in mice", 10],
  ["CSc1nncc(-c2ccc(Cl)s2)n1", "phenylquinone writhing in mice", 10],
  ["COc1cc(-c2cnnc(SC)n2)ccc1O", "phenylquinone writhing in mice", 10],
  ["CSc1nncc(-c2cccc3ccccc23)n1", "phenylquinone writhing in mice", 20],
  ["CSc1nncc(-c2c3ccccc3cc3ccccc23)n1", "phenylquinone writhing in mice", 20],
  ["CSc1nnc(C)c(C)n1", "phenylquinone writhing in mice", 20],
  ["CSc1nncc(C(c2ccccc2)c2ccccc2)n1", "phenylquinone writhing in mice", 10],
  ["NNc1nncc(-c2cccc(C(F)(F)F)c2)n1", "phenylquinone writhing in mice", 40],
  ["C[C@@H]1CC[C@H](C)N1c1nnc(-c2ccccc2)c(-c2ccccc2)n1", "phenylquinone writhing in mice", 10],
  ["COc1nnc(-c2ccc(Cl)cc2)c(-c2ccc(Cl)cc2)n1", "phenylquinone writhing in mice", 10],
  ["COc1ccc(-c2nnc(SC)nc2-c2ccc(OC)cc2)cc1", "phenylquinone writhing in mice", 30],
  ["Cc1nnc(S(C)(=O)=O)nc1C", "phenylquinone writhing in mice", 30],
  ["CSc1nncc(-c2c(C)cc(C)cc2C)n1", "phenylquinone writhing in mice", 10],
  ["OCCNc1nncc(-c2ccccc2)n1", "phenylquinone writhing in mice", 10],
  ["COc1ccc(-c2cnnc(SC)n2)cc1", "phenylquinone writhing in mice", 20],
  ["Oc1nncc(-c2ccccc2)n1 [Example 90, 3-hydroxy-5-phenyl-1,2,4-triazine]", "phenylquinone writhing in mice", 20]
]}
